Record form. Attribute: Relative cAMP EC50. Fill in for each entry.
MEASURED TARGET: human glucagon receptor (human) (UniProt P47871)
Sequence (P47871 26-477): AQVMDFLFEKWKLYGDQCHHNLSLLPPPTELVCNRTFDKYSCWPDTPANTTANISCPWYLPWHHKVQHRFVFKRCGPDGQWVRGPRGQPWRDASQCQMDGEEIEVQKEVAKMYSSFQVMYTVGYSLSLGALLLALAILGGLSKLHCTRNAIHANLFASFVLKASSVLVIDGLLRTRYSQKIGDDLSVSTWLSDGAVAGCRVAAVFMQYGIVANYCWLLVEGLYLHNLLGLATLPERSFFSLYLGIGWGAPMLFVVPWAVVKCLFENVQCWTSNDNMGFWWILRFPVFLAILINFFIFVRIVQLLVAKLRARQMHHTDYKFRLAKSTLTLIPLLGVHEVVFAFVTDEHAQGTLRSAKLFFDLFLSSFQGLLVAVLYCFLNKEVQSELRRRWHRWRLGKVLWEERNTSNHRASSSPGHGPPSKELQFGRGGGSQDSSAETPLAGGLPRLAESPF
EXPERIMENT: cell-based or functional assay
Non-standard residues stand in square brackets, D forms with d. No end group written: not given here. αMePhe(2-F) = C[C@](N)(Cc1ccccc1F)C(=O)O; Aib = CC(C)(N)C(=O)O
Please provide the amount together with its unit, number first.

Past entries and their recorded results:
| BINDER | Relative cAMP EC50 |
| --- | --- |
| Y[Aib]QGT[αMePhe(2-F)]TSDYSILLDKQAAKEFIEYLIEGGPSSGEPPPSEG-NH2 (not fully specified (residue 20)) [Example 348] | 3.9 nM |
| YXQGTFTSDXSQXLDKKAQXAFIEYLLEAGPSSGAPPPSGS (synthetic construct; SITE 2: note = 2-Aminoisobutyric Acid; SITE 10: note = 3-(4-Pyridyl)-L-alanine; SITE 13: note = alpha-methyl-leucine; SITE 17: note = Lysine is chemically modified through conjugation of the epsilon-amino group of the Lysine side chain with (2-[2-(2-Amino-ethoxy)-ethoxy]-acetyl)) [Example 820] | 6.83 nM |
| YXQGTFTSDFSXXLDKKAQXAFIEYLLEXGHSSGAPPPSGS (Aib, Orn, αMeL; lipidated Lys; C-terminal amide; synthetic construct; SITE 2: note = 2-Aminoisobutyric Acid; SITE 12: note = L-ornithine; SITE 13: note = alpha-methyl-leucine; SITE 17: note = Lysine is chemically modified through conjugation of the epsilon-amino group of the Lysine side chain with (gamma-Glu)-(2-[2-(2-Amino-ethoxy)-ethoxy]-acetyl)) [Example 245] | 7.07 nM |
| Y[Aib]QGT[αMePhe(2-F)]TSDYSKLLDKIAQKAFIEYLIEGGPSSGEPPPSEG-NH2 (not fully specified (residue 20)) [Example 330] | 3.91 nM |

Entry under review: YXQGTFTSDFSKXLDKKAQXAFIEYLLAGGPSSGEPPPSGEX (not fully specified; Aib, αMeL; acylated Lys; C-terminal AEEA amide; synthetic construct; SITE 2: note = 2-Aminoisobutyric Acid; SITE 13: note = alpha-methyl-leucine; SITE 17: note = Lysine is chemically modified through conjugation of the epsilon-amino group of the Lysine side chain with (2-[2-(2-Amino-ethoxy)-ethoxy]-acetyl)-(gamma-Glu)-CO-(CH2) 18-CO2H; SITE 20: n) [Example 33] . Reported Relative cAMP EC50?
7.04 nM
